System: Acinetobacter baumannii
Assay: Antimicrobial activity against OXA-23/OXA-58 producing Acinetobacter baumannii SR27323 in presence of human apo-transferrin by broth microdilution method
Assay type: functional
// values below are reported MIC
All answers are understood in µg/mL, so give the number only.

Lab note: compound CC(C)(O/N=C(\C(=O)N[C@@H]1C(=O)N2C(C(=O)[O-])=C(C[N+]3(CCNC(=O)c4ccc(O)c(O)c4O)CCCC3)CS[C@H]12)c1csc(N)n1)C(=O)O tested on Acinetobacter baumannii; recorded MIC was 32

Lab note: compound C[C@H](O/N=C(\C(=O)N[C@@H]1C(=O)N2C(C(=O)[O-])=C(C[N+]3(CCNC(=O)c4ccc(O)c(O)c4Cl)CCCC3)CS[C@H]12)c1csc(N)n1)C(=O)O tested on Acinetobacter baumannii; recorded MIC was 1

Lab note: compound C[C@@H](O/N=C(\C(=O)N[C@@H]1C(=O)N2C(C(=O)[O-])=C(C[N+]3(CCNC(=O)c4ccc(O)c(O)c4Cl)CCCC3)CS[C@H]12)c1csc(N)n1)C(=O)O tested on Acinetobacter baumannii; recorded MIC was 1

Lab note: compound CC(C)(O/N=C(\C(=O)N[C@@H]1C(=O)N2C(C(=O)[O-])=C(C[N+]3(CCNC(=O)c4ccc(=O)n(O)c4)CCCC3)CS[C@H]12)c1csc(N)n1)C(=O)O tested on Acinetobacter baumannii; recorded MIC was 32

Lab note: compound CC(C)(O/N=C(\C(=O)N[C@@H]1C(=O)N2C(C(=O)[O-])=C(C[N+]3(CCNC(=O)c4cc(Cl)c(O)c(O)c4Cl)CCCC3)CS[C@H]12)c1csc(N)n1)C(=O)O tested on Acinetobacter baumannii; recorded MIC was 0.25

Lab note: compound CC(C)(O/N=C(\C(=O)N[C@@H]1C(=O)N2C(C(=O)[O-])=C(C[N+]3(CCNC(=O)c4cc(O)c(O)cc4Cl)CCCC3)CS[C@H]12)c1csc(N)n1)C(=O)O tested on Acinetobacter baumannii; recorded MIC was 1

* * *

// values below are reported MIC
Test system: Pseudomonas aeruginosa
Assay: Antimicrobial activity against AmpC overproducing Pseudomonas aeruginosa SR24-12 in presence of human apo-transferrin by broth microdilution method
Format: functional
All answers are understood in µg/mL, so give the number only.

C[C@@H](O/N=C(\C(=O)N[C@@H]1C(=O)N2C(C(=O)[O-])=C(C[N+]3(CCNC(=O)c4ccc(O)c(O)c4Cl)CCCC3)CS[C@H]12)c1csc(N)n1)C(=O)O	0.5
CC(C)(O/N=C(\C(=O)N[C@@H]1C(=O)N2C(C(=O)[O-])=C(C[N+]3(CCNC(=O)c4ccc(=O)n(O)c4)CCCC3)CS[C@H]12)c1csc(N)n1)C(=O)O	2

Now consider a different compound.
The compound identified as CC(C)(O/N=C(\C(=O)N[C@@H]1C(=O)N2C(C(=O)[O-])=C(C[N+]3(CCNC(=O)c4cccc(O)c4O)CCCC3)CS[C@H]12)c1csc(N)n1)C(=O)O registered its MIC at 0.25

* * *

Test system: Pseudomonas aeruginosa
Test: Antimicrobial activity against AmpC overproducing Pseudomonas aeruginosa SR24-12 in presence of human apo-transferrin by broth microdilution method
Type: functional
VALUE KIND: MIC (µg/mL)
All answers are understood in µg/mL, so give the number only.

// below: answered molecules
CC(C)(O/N=C(\C(=O)N[C@@H]1C(=O)N2C(C(=O)[O-])=C(C[N+]3(CCNC(=O)c4cc(O)c(O)c(Cl)c4)CCCC3)CS[C@H]12)c1csc(N)n1)C(=O)O	0.125
Nc1nc(/C(=N/OCC(=O)O)C(=O)N[C@@H]2C(=O)N3C(C(=O)[O-])=C(C[N+]4(CCNC(=O)c5ccc(O)c(O)c5Cl)CCCC4)CS[C@H]23)cs1	0.5

The molecule identified as CC(C)(O/N=C(\C(=O)N[C@@H]1C(=O)N2C(C(=O)[O-])=C(C[N@@+]3(C)C[C@H]4CN(C(=O)c5ccc(O)c(O)c5Cl)C[C@H]4C3)CS[C@H]12)c1csc(N)n1)C(=O)O registered its MIC at 0.25

The molecule identified as NCC[N+]1(CC2=C(C(=O)[O-])N3C(=O)[C@@H](NC(=O)/C(=N\O[C@@H](CNC(=O)c4ccc(O)c(O)c4Cl)C(=O)O)c4csc(N)n4)[C@H]3SC2)CCCC1 registered its MIC at 0.063

The molecule identified as CC(C)(O/N=C(\C(=O)N[C@@H]1C(=O)N2C(C(=O)[O-])=C(C[N+]3(CCNC(=O)c4cc(=O)c(O)c[nH]4)CCCC3)CS[C@H]12)c1csc(N)n1)C(=O)O registered its MIC at 0.25

The molecule identified as CC(C)(O/N=C(\C(=O)N[C@@H]1C(=O)N2C(C(=O)[O-])=C(C[N+]3(CCNC(=O)c4[nH]cc(O)c(=O)c4Cl)CCCC3)CS[C@H]12)c1csc(N)n1)C(=O)O registered its MIC at 24
